assay: physchem; type: physicochemical; conditions: pH 2, simulated gastric fluid, kinetic from dmso stock
Metric Name: solubility

Problem: Report solubility for Cc1cccc(C)c1CC1CN(C(=O)[C@@H](N)Cc2ccc(O)cc2)C1 [(S)-SW703] please.
Result: > 0.034 mg/mL

###

system: P. falciparum Dd2 (PfDd2, parent); experiment: Asexual blood-stage growth inhibition; type: cell-based; settings: Plasmodium falciparum, DD2, read-out: KAF156 EC50
Metric Name: EC50
In your response, put the unit directly after the numeric value.

Problem: Report EC50 for CC1(C)c2nc(-c3ccc(F)cc3)c(Nc3ccc(F)cc3)n2CCN1C(=O)CN [KAF156, reference compound] please.
Result: 12 nM

###

assay: HepG2 cytotoxicity; type: cell-based; settings: human, HepG2 cells
Metric Name: CC50 at 72 h

Problem: Report CC50 at 72 h for Cc1cccc(C)c1CC1CN(C(=O)[C@@H](N)Cc2ccc(O)cc2)C1 [(S)-SW703] please.
Result: > 50 µM

###

test system: P. falciparum 3D7 (Pf3D7); experiment: Asexual blood-stage growth inhibition; type: cell-based; conditions: Plasmodium falciparum, 3D7, 72 h, read-out: Pf3D7 EC50
Metric Name: EC50 (µM)
Numbers only, in µM.

Problem: Report EC50 for Cc1cccc(C)c1CC1CN(C(=O)[C@@H](N)Cc2ccc(O)cc2)C1 [(S)-SW703] please.
Result: 0.78
